All figures here come from patent US20090208538A1.

Attribute: t1/2
- assaySystem: HLA-B*0702 (human)
- experimentalProtocol: iTopia off-rate
Respond with the number and no other words.

TGAYRARAL [cdr2 240-248 TGAYRARAL]    0.22
HLKKTVTML [cdr2 197-205 HLKKTVTML]    0.11
RTKYRSLSS [cdr2 444-452 RTKYRSLSS]    1.83
KQVELLRQM [cdr2 68-76 KQVELLRQM]    1.15
TSRAAAKDL [cdr2 381-389 TSRAAAKDL]    1.19
LAAELGKTL [cdr2 30-38 LAAELGKTL]    0.5

Query RARALELEA [cdr2 244-252 RARALELEA] yields t1/2 of 0.47

t1/2 recorded for this binder, TPPEYKALF [cdr2 418-426 TPPEYKALF] , is 1.26

For ENSELEQQL [cdr2 229-237 ENSELEQQL] the binder record lists t1/2 as 1.13

Sample AVQTSRAAA [cdr2 378-386 AVQTSRAAA] ; t1/2 observed: 0.9

Just so you know, measured t1/2 for EQRTKYRSL [cdr2 442-450 EQRTKYRSL] came out at 1.59

The binder listed as KPAPSFACL [cdr2 153-161 KPAPSFACL] shows t1/2 equal to 1.29

get_value(item= AYRARALEL [cdr2 242-250 AYRARALEL] , readout=t1/2) returns 0.15

t1/2 measured on EVAEMRQML [cdr2 253-261 EVAEMRQML] = 0.74

t1/2 for AVKQRGISL [cdr2 337-345 AVKQRGISL] is 1.18

// recorded t1/2 for LVLKENSEL [cdr2 225-233 LVLKENSEL] : 0.49

For VPDSLYVPF [cdr2 275-283 VPDSLYVPF] the binder record lists t1/2 as 0.58

Query VPESHRKPL [cdr2 298-306 VPESHRKPL] yields t1/2 of 1.33
